tested on: RNA polymerase II Serine 5 phosphorylation in A549 cells overexpressing CDK7 mutant (C312S); test: Imaging-based cellular RNA PolII Ser5 phosphorylation assay in A549 cells overexpressing CDK7-mutant (C312S); type: cell-based, human; conditions: Homo sapiens, A549, A549 cells overexpressing CDK7 mutant (C312S); read-out: CDK7_ A549 mutant hCDK7(pIC50) (converted)
# reported IC50; entries follow

Noted for C=CC(=O)N1CCC(N2CC(c3cc(C)c4c(c3)Nc3ncnc(N5CCS(=N)(=O)CC5)c3CO4)C2)CC1 : its IC50 reads > 10 µM

get_value(item= C=CC(=O)N1CC[C@H](N2CCC(c3cc(F)c4c(c3)Nc3ncnc(N5CCOCC5)c3CO4)CC2)C1 (single isomer, unassigned) , readout=IC50) returns > 10 µM

###

molecular target: CDK7/cyclinH/MAT1 trimeric complex (Homo sapiens (Human)); test: In vitro CDK7 assay, potency of irreversible covalent inhibitors (kinact/KI); details: read-out: CDK7 (20 nM enz.) (kinact, s^−1), 20 nM enz.
Sequence (P50613 whole entry): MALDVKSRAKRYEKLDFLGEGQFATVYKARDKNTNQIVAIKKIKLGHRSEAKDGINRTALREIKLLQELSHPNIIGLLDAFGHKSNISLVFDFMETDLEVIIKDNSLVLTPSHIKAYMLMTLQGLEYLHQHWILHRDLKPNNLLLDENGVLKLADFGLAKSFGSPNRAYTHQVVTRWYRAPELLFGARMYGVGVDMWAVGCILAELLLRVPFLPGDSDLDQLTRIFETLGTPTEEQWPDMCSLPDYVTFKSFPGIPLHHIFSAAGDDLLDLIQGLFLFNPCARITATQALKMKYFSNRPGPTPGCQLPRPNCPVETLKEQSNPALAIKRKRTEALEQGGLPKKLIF
Sequence (P51946 whole entry partner): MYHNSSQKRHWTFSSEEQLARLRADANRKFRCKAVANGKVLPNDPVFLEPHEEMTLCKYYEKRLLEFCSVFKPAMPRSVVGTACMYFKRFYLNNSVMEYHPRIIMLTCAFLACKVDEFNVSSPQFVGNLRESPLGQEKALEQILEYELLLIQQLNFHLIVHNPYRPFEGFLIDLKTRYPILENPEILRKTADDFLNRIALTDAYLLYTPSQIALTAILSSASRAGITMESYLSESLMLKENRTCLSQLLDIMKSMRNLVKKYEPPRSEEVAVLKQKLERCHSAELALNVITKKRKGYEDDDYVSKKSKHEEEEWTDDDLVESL
Sequence (P51948 whole entry partner): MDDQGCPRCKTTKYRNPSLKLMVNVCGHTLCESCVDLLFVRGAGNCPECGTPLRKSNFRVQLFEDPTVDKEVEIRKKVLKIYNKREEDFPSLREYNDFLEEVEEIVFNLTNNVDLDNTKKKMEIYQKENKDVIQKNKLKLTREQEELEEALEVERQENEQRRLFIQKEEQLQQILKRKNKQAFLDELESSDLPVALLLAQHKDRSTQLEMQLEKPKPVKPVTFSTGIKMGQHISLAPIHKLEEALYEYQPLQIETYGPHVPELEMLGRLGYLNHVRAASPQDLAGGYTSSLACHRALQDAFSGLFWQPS
measured.metric: kinact (s⁻¹)

Example results:
C=CC(=O)N1CC(N2CCC(c3cc(C)c4c(c3)Nc3ncnc(N5CCS(=O)(=O)CC5)c3CO4)CC2)C1 ... 5.87e-05
C=CC(=O)N1CC[C@@H](N2CC(c3cc4c(c(C5CC5)c3)OCc3c(ncnc3N3CCS(=O)(=O)CC3)N4)C2)C1 (single isomer, unassigned) ... 6.26e-05

I. C=CC(=O)N1CC[C@H](N2CC(c3cc4c(c(C5CC5)c3)OCc3c(ncnc3N3CCS(=O)(=O)CC3)N4)C2)C1 (single isomer, unassigned)
II. C=CC(=O)N1CC(N2CC(c3cc(C)c4c(c3)Nc3ncnc(N5CCOCC5)c3C(C)O4)C2)C1 (stereo not shown)
Input line: Please indicate which entry, I or II , has the lower recorded kinact value. When you have decided, please share the label of that item.
Output line: II

a. C=CC(=O)N1CC(N2CC(c3cc(C)c4c(c3)Nc3ncnc(N5CCS(=O)(=O)CC5)c3CO4)C2)C1
b. C=CC(=O)N1CC(N2CC[C@@H](c3cc4c(c(C)n3)OCc3c(ncnc3N3CCS(=O)(=O)CC3)N4)C2)C1
Input line: Kindly compare a with b and tell me which has the lower kinact figure. Lab note: record the label of whichever item you select.
Output line: b

A. C=CC(=O)N1CC(N2CCC(c3cc(C)c4c(c3)Nc3ncnc(N5CCS(=O)(=O)CC5)c3[C@@H](C)O4)CC2)C1 (single isomer, unassigned)
B. C=CC(=O)N1CC(N2CC(c3cc(C)c4c(c3)Nc3ncnc(-c5cnn(C)c5)c3[C@@H](C)O4)C2)C1 (single isomer, unassigned)
Input line: Field: entry with larger kinact (options A / B ). Write down the label attached to your selection.
Output line: A

1. C=CC(=O)N1CC(N2CCC(c3cc(C#N)c4c(c3)Nc3ncnc(N5CCOCC5)c3CO4)CC2)C1
2. C=CC(=O)N1CC(N2CCC(c3cc(C)c4c(c3)Nc3ncnc(N5CCCC(C#N)C5)c3CO4)CC2)C1 (stereo not shown)
Input line: Which value of kinact is smaller, the one for 1 or the one for 2 ? Bench note: the answer is the label of the chosen record.
Output line: 1
(1: 6.75e-05 s⁻¹, 2: 0.000103 s⁻¹)

###

IC50 values for the molecules below.
system: RNA polymerase II Serine 5 phosphorylation in A549 cells overexpressing CDK7 mutant (C312S); assay: Imaging-based cellular RNA PolII Ser5 phosphorylation assay in A549 cells overexpressing CDK7-mutant (C312S); format: cell-based, human; conditions: Homo sapiens, A549, A549 cells overexpressing CDK7 mutant (C312S); read-out: CDK7_ A549 mutant hCDK7(pIC50) (converted)

See these solved cases before continuing.
C=CC(=O)N1CC(N2CCN(c3cc4c(cn3)OCc3c(ncnc3N3CCOCC3)N4)CC2)C1 [compound 71] ... > 10 µM
CC#CC(=O)N1CCC(N2CC(c3cc(C)c4c(c3)Nc3ncnc(N5CCS(=O)(=O)CC5)c3CO4)C2)CC1 [compound 133] ... 8.51 µM
CC#CC(=O)N1CCN(C2CCN(c3cc(C)c4c(c3)Nc3ncnc(N5CCS(=O)(=O)CC5)c3CO4)CC2)CC1 [compound 137] ... > 10 µM
Cc1cc(C2CCN(C3CN(C(=O)C#CCCN(C)C)C3)CC2)cc2c1O[C@H](C)c1c(ncnc1N1CCS(=O)(=O)CC1)N2 [compound 178] ... 5.75 µM
C=CC(=O)N1CC(N2CCN(c3ccc4c(c3)Nc3ncnc(N5CCOCC5)c3CO4)CC2)C1 [compound 6] ... > 10 µM
C=CC(=O)N1CC(N2CCC(c3cc(C)c4c(c3)Nc3ncnc(-c5cn(C)nc5C)c3CO4)CC2)C1 [compound 81] ... > 10 µM

Let's switch to this molecule now.
What the record says about C#Cc1cc(C2CN([C@H]3CCN(C(=O)C=C)C3)C2)cc2c1O[C@@H](C)c1c(ncnc1N1CCS(=O)(=O)CC1)N2 [compound 194] : IC50 is > 10 µM
